- Experimental protocol: RPMI8226 myeloma cell viability, profiling panel, resazurin fluorescence, basal, 24 h, PK04 Diversity Set (AID 1180);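 also: RPMI8826 multiple myeloma cell line at 5000 cells per well; test concentration not given here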
- Run parameters: higher = more signal
Measurement kind: z-score
Write the number on its own, no unit after it.

Compound	Assay result
CCN1C(=O)[C@H]2[C@H]3[C@H](O)[C@H](O)CC(=NOC(C)CN4CCCCc5nc(C)c(C)cc54)[C@@H]3CC[C@H]2C1=O (stereo partly specified)	-0.889

// query Look up z-score of "COC(=O)c1c(CC[C@@H](CO)NC(=O)N[C@H](Cc2ccccc2)Cn2cc(-c3ccccc3N)nn2)oc(C(C)=O)c1C(=O)OC" and report it.
// result 0.336

// query For the compound "C=CCOC(=O)[C@H]1[C@@H]2C(=O)O[C@@H](c3ccccc3)[C@@H](c3ccccc3)N2[C@@H](c2ccc(OCCOC(=O)[C@H]3C[C@H]4C(=O)N5CCC[C@H]5C(=O)N4[C@H]3c3cccc(OCCO)c3)cc2)[C@]12C(=O)Nc1ccc(I)cc12" , report z-score.
// result 0.0614

From: PubChem BioAssay
